All values here come from the supplement of paper PMC9254222.

tested on: HEK293T (UBE3A T485A transfected, BAR Wnt reporter); experiment: Wnt reporter firefly/Renilla luciferase ratio relative to plate median (fold (linear ratio)); higher = more Wnt/beta-catenin reporter activation; details: concentration: 0.1 uM; 24 h
Whole data set: some 1,100 compounds, median “Wnt reporter firefly/Renilla luciferase ratio relative to plate median” near 1.1, cut for the highest 2% near 1.6. The list comes from a sample in which the highest values are over-represented; it also holds close analogues and randomly drawn compounds.
observation.type: Wnt reporter firefly/Renilla luciferase ratio
Lab note: jot the number down without any unit.

GET /values?readout=Wnt reporter firefly/Renilla luciferase ratio&item= `CNC(=O)ON=C(C)SC`
1.08

GET /values?readout=Wnt reporter firefly/Renilla luciferase ratio&item= CCC(C)c1cc([N+](=O)[O-])cc([N+](=O)[O-])c1O (stereo unspecified)
0.797

GET /values?readout=Wnt reporter firefly/Renilla luciferase ratio&item= `COC(=O)Nc1nc2ccccc2[nH]1`
1.09

GET /values?readout=Wnt reporter firefly/Renilla luciferase ratio&item= `O=[N+]([O-])c1ccc(Oc2ccc(Cl)cc2Cl)cc1`
1.04

GET /values?readout=Wnt reporter firefly/Renilla luciferase ratio&item= COC(=O)C(C)Oc1ccc(Oc2ccc(Cl)cc2Cl)cc1 (stereo unspecified)
1.28

GET /values?readout=Wnt reporter firefly/Renilla luciferase ratio&item= `CCN(CC)C(=O)SCc1ccc(Cl)cc1`
1.27

GET /values?readout=Wnt reporter firefly/Renilla luciferase ratio&item= COC(=CC(N)=O)C(C)C(C=Cc1csc(-c2csc(C(C)C=CC=CC(C)C)n2)n1)OC (stereo unspecified)
0.921

GET /values?readout=Wnt reporter firefly/Renilla luciferase ratio&item= `COc1ccc(C)cc1N`
1.14

GET /values?readout=Wnt reporter firefly/Renilla luciferase ratio&item= `Clc1ccc(C(c2ccc(Cl)cc2)C(Cl)Cl)cc1`
0.983

GET /values?readout=Wnt reporter firefly/Renilla luciferase ratio&item= `N#Cc1cccnc1`
0.974

GET /values?readout=Wnt reporter firefly/Renilla luciferase ratio&item= `N#CC(Br)Br`
1.15

GET /values?readout=Wnt reporter firefly/Renilla luciferase ratio&item= `CS/C(C)=N/OC(=O)N(C)SN(C)C(=O)O/N=C(\C)SC`
1.86

GET /values?readout=Wnt reporter firefly/Renilla luciferase ratio&item= `CC(C)(C)CC(C)(C)c1ccc(O)cc1`
1.03

GET /values?readout=Wnt reporter firefly/Renilla luciferase ratio&item= CCC(C)n1c(=O)[nH]c(C)c(Br)c1=O (stereo unspecified)
1

GET /values?readout=Wnt reporter firefly/Renilla luciferase ratio&item= `CC(Cl)(Cl)C(=O)O`
1.05

GET /values?readout=Wnt reporter firefly/Renilla luciferase ratio&item= CCON=C(CC)C1=C(O)CC(c2c(C)cc(C)cc2C)CC1=O (stereo unspecified)
1.54

GET /values?readout=Wnt reporter firefly/Renilla luciferase ratio&item= `CN(C)c1ccc(Cc2ccc(N(C)C)cc2)cc1`
1.02

GET /values?readout=Wnt reporter firefly/Renilla luciferase ratio&item= `CCOc1cccc([C@]2(N3CCN(c4ccccc4)CC3)CC[C@@H](C)CC2)c1.CS(=O)(=O)O`
1.38

GET /values?readout=Wnt reporter firefly/Renilla luciferase ratio&item= `Nc1ccc2ccccc2c1`
0.991

* * *

Assign Wnt reporter firefly/Renilla luciferase ratio to each entry below.
system: HEK293T (UBE3A T485A transfected, BAR Wnt reporter); experiment: Wnt reporter firefly/Renilla luciferase ratio relative to plate median (fold (linear ratio)); higher = more Wnt/beta-catenin reporter activation; details: concentration: 1 uM; 24 h
The full ranking holds about 1,100 compounds; the median of “Wnt reporter firefly/Renilla luciferase ratio relative to plate median” is about 1.1, and the highest 2% start at about 1.6. The sample holds the highest values, similar compounds and a random draw of the others, so the mix is not that of the screen.

GET /values?readout=Wnt reporter firefly/Renilla luciferase ratio&item= Cc1cccc([N+](=O)[O-])c1C [1,2-Dimethyl-3-nitrobenzene]
0.898

GET /values?readout=Wnt reporter firefly/Renilla luciferase ratio&item= N#Cc1cccnc1 [3-Pyridinecarbonitrile]
1.13

GET /values?readout=Wnt reporter firefly/Renilla luciferase ratio&item= O=C(O)CNCP(=O)(O)O [Glyphosate]
1.39

GET /values?readout=Wnt reporter firefly/Renilla luciferase ratio&item= Clc1ccc(C(c2ccccc2Cl)C(Cl)(Cl)Cl)cc1 (stereo unspecified)
0.858

GET /values?readout=Wnt reporter firefly/Renilla luciferase ratio&item= CNC(=O)ON=C(C)SC [Methomyl]
1.03

GET /values?readout=Wnt reporter firefly/Renilla luciferase ratio&item= COc1nn(CSP(=S)(OC)OC)c(=O)s1 [Methidathion]
1.33

GET /values?readout=Wnt reporter firefly/Renilla luciferase ratio&item= CCNc1nc(Cl)nc(NC(C)(C)C#N)n1 [Cyanazine]
0.962

GET /values?readout=Wnt reporter firefly/Renilla luciferase ratio&item= CC(Oc1cccc(Cl)c1)C(=O)O (stereo unspecified) [Cloprop]
1.12

GET /values?readout=Wnt reporter firefly/Renilla luciferase ratio&item= O=P(O)(O)CCCl [Ethephon]
1.18

GET /values?readout=Wnt reporter firefly/Renilla luciferase ratio&item= COS(=O)(=O)[O-].Cn1c(-c2ccccc2)cc(-c2ccccc2)[n+]1C [Difenzoquat metilsulfate]
1.1

GET /values?readout=Wnt reporter firefly/Renilla luciferase ratio&item= Cc1cc(N=Nc2ccccc2C)ccc1N [2-Amino-5-azotoluene]
0.968

* * *

Assign Wnt reporter firefly/Renilla luciferase ratio to each entry below.
tested on: HEK293T (UBE3A T485A transfected, BAR Wnt reporter); test: Wnt reporter firefly/Renilla luciferase ratio relative to plate median (fold (linear ratio)); higher = more Wnt/beta-catenin reporter activation; settings: concentration: 0.1 uM; 24 h
The full ranking holds about 1,100 compounds; the median of “Wnt reporter firefly/Renilla luciferase ratio relative to plate median” is about 1.1, and the highest 2% start at about 1.6. The sample holds the highest values, similar compounds and a random draw of the others, so the mix is not that of the screen.

GET /values?readout=Wnt reporter firefly/Renilla luciferase ratio&item= CC(C)N1C(=O)N(c2ccccc2)CSC1=NC(C)(C)C [Buprofezin]
1.69

GET /values?readout=Wnt reporter firefly/Renilla luciferase ratio&item= NC1=NC(O)C2C3OC4(O)OC(C(O)C2(N1)C4O)C3(O)CO (centres undefined) [Tetrodotoxin (TTX)]
1.12

GET /values?readout=Wnt reporter firefly/Renilla luciferase ratio&item= Nn1cnnc1 [4-Amino-1,2,4-triazole]
1.22

GET /values?readout=Wnt reporter firefly/Renilla luciferase ratio&item= `Nc1cc2c3c(c1)C(c1ccccc1)=N[C@@H](NC(=O)c1cccnc1)C(=O)N3CC2`
1.19

GET /values?readout=Wnt reporter firefly/Renilla luciferase ratio&item= CCOC(=O)COc1cc(-c2nn(C)c(OC(F)F)c2Cl)c(F)cc1Cl [Pyraflufen-ethyl]
1.63

GET /values?readout=Wnt reporter firefly/Renilla luciferase ratio&item= ClC1=C(Cl)C2(Cl)C3C4OC4C(Cl)C3C1(Cl)C2(Cl)Cl (centres undefined) [Heptachlor epoxide]
1.18

GET /values?readout=Wnt reporter firefly/Renilla luciferase ratio&item= Clc1ccccc1-c1nnc(-c2ccccc2Cl)nn1 [Clofentezine]
1.25

GET /values?readout=Wnt reporter firefly/Renilla luciferase ratio&item= O=[N+]([O-])c1cc(C(F)(F)F)c(Cl)c([N+](=O)[O-])c1Nc1ncc(C(F)(F)F)cc1Cl [Fluazinam]
0.969

GET /values?readout=Wnt reporter firefly/Renilla luciferase ratio&item= CC(C)(C)c1ccc(O)cc1 [4-tert-Butylphenol]
0.97

* * *

test system: HEK293T (UBE3A T485A transfected, BAR Wnt reporter); assay: Wnt reporter firefly/Renilla luciferase ratio relative to plate median (fold (linear ratio)); higher = more Wnt/beta-catenin reporter activation; conditions: concentration: 100 uM; 24 h
The full ranking holds about 1,100 compounds; the median of “Wnt reporter firefly/Renilla luciferase ratio relative to plate median” is about 1.1, and the highest 2% start at about 1.6. The entries come from a sample that favours the highest values as a whole.
observation.type: Wnt reporter firefly/Renilla luciferase ratio
Lab note: jot the number down without any unit.

GET /values?readout=Wnt reporter firefly/Renilla luciferase ratio&item= `CC(Cl)(Cl)C(=O)O`
1.25

GET /values?readout=Wnt reporter firefly/Renilla luciferase ratio&item= `O=S(=O)([O-])C(F)(F)C(F)(F)C(F)(F)C(F)(F)F.[K+]`
1.73

GET /values?readout=Wnt reporter firefly/Renilla luciferase ratio&item= `O=S(=O)([O-])C(F)(F)C(F)(F)C(F)(F)C(F)(F)C(F)(F)C(F)(F)F.[K+]`
1.21

GET /values?readout=Wnt reporter firefly/Renilla luciferase ratio&item= `Clc1ccc(C(c2ccc(Cl)cc2)C(Cl)Cl)cc1`
1.16

GET /values?readout=Wnt reporter firefly/Renilla luciferase ratio&item= `Nc1ccc(Cl)cc1`
0.367

GET /values?readout=Wnt reporter firefly/Renilla luciferase ratio&item= CC(COc1ccc(Oc2ccccc2)cc1)Oc1ccccn1 (stereo unspecified)
0.55

* * *

system: HEK293T (UBE3A T485A transfected, BAR Wnt reporter); test: Wnt reporter firefly/Renilla luciferase ratio relative to plate median (fold (linear ratio)); higher = more Wnt/beta-catenin reporter activation; conditions: concentration: 100 uM; 24 h
Over roughly 1,100 compounds, “Wnt reporter firefly/Renilla luciferase ratio relative to plate median” has its median near 1.1; the highest 2% begin near 1.6. The sample as a whole holds a higher share of the highest values than the screen did.
Decide by Wnt reporter firefly/Renilla luciferase ratio: equal to or exceeding 1 means T, less means F.

Hi team, for `CS(=O)(=O)c1cc(C(F)(F)F)ccc1C(=O)c1cnoc1C1CC1` , is the recorded Wnt reporter firefly/Renilla luciferase ratio at or above 1?
T

Hi team, for `N#CC(Br)Br` , is the recorded Wnt reporter firefly/Renilla luciferase ratio at or above 1?
T

Hi team, for `CC(C)Oc1cccc(NC(=O)c2ccccc2C(F)(F)F)c1` , is the recorded Wnt reporter firefly/Renilla luciferase ratio at or above 1?
F

Hi team, for `CCOc1cccc([C@]2(N3CCN(c4ccccc4)CC3)CC[C@@H](C)CC2)c1.CS(=O)(=O)O` , is the recorded Wnt reporter firefly/Renilla luciferase ratio at or above 1?
T

Hi team, for `Cn1cc(-c2ccccc2)c(=O)c(-c2cccc(C(F)(F)F)c2)c1` , is the recorded Wnt reporter firefly/Renilla luciferase ratio at or above 1?
F

Hi team, for `Nn1cnnc1` , is the recorded Wnt reporter firefly/Renilla luciferase ratio at or above 1?
T

Hi team, for Clc1ccc(C(Cl)(Cl)Cl)cc1 [4-Chlorobenzotrichloride] , is the recorded Wnt reporter firefly/Renilla luciferase ratio at or above 1?
T

Hi team, for CCCCC(C#N)(Cn1cncn1)c1ccc(Cl)cc1 (stereo not given) , is the recorded Wnt reporter firefly/Renilla luciferase ratio at or above 1?
F

Hi team, for CC(Oc1cccc(Cl)c1)C(=O)O (stereo not given) , is the recorded Wnt reporter firefly/Renilla luciferase ratio at or above 1?
T

Hi team, for `COC(=O)Nc1nc2ccccc2[nH]1` , is the recorded Wnt reporter firefly/Renilla luciferase ratio at or above 1?
F
